System: HepG2
TEST_DESCRIPTION: cytotoxicity call (relative viability < 0.9)
MEASUREMENT_PARAMETERS: 10 µM
In all, about 39,000 compounds went through this assay and about 3,300 (8.5%) were called active. The full list was thinned out, with actives kept by preference.
Outcome codes: T = active, F = inactive

{"COMPOUND": "CN[C@H]1CC[C@@H](c2ccc(Cl)c(Cl)c2)c2ccccc21", "TEST_SYSTEM": "HepG2", "ANSWER_LABEL": "T"}
{"COMPOUND": "CNC1CCC(c2ccc(Cl)c(Cl)c2)c2ccccc21.Cl (centres undefined)", "TEST_SYSTEM": "HepG2", "ANSWER_LABEL": "T"}
{"COMPOUND": "O=C(C[C@H]1CC[C@H](NC(=O)c2cccnc2)[C@H](CO)O1)NCCN1CCCCC1", "TEST_SYSTEM": "HepG2", "ANSWER_LABEL": "F"}
{"COMPOUND": "C[C@@H]1CN([C@H](C)CO)C(=O)c2cccc(NC(=O)C3CCCCC3)c2O[C@H]1CN(C)C(=O)Nc1ccc(C(F)(F)F)cc1", "TEST_SYSTEM": "HepG2", "ANSWER_LABEL": "F"}
{"COMPOUND": "CO[C@@H]1CN(C)C(=O)c2ccc(NC(=O)c3ccccc3)cc2OC[C@@H](C)N(C(=O)CN(C)C)C[C@@H]1C", "TEST_SYSTEM": "HepG2", "ANSWER_LABEL": "F"}
{"COMPOUND": "N[C@@H]1CC[C@@H](c2ccc(Cl)c(Cl)c2)c2ccccc21", "TEST_SYSTEM": "HepG2", "ANSWER_LABEL": "T"}
{"COMPOUND": "CCc1nc2ccc(C(=O)N3CCN(S(=O)(=O)CC)CC3)cn2c1N(C=O)Cc1ccc(OC)cc1", "TEST_SYSTEM": "HepG2", "ANSWER_LABEL": "F"}
{"COMPOUND": "CCCN(C)C[C@@H]1Oc2cc(C#Cc3ccc(OC)cc3)ccc2S(=O)(=O)N([C@H](C)CO)C[C@@H]1C", "TEST_SYSTEM": "HepG2", "ANSWER_LABEL": "F"}
{"COMPOUND": "Cn1nccc1C(=O)NCCN", "TEST_SYSTEM": "HepG2", "ANSWER_LABEL": "F"}

====

Tested on: HepG2
TEST_DESCRIPTION: cytotoxicity call (relative viability < 0.9)
MEASUREMENT_PARAMETERS: 10 µM
Hit rate of the full screen: of about 39,000 compounds, about 3,300 (8.5%) were called active. What follows is part of a selection rich in actives, with near analogues and random picks from the rest.
Outcome codes: 1 (yes) (active), 0 (no) (inactive)

{"COMPOUND": "C[C@@H]1CN([C@H](C)CO)C(=O)Cc2cc(NC(=O)C3CC3)ccc2O[C@@H]1CN(C)S(=O)(=O)c1cn(C)cn1", "TEST_SYSTEM": "HepG2", "ANSWER_LABEL": "0 (no)"}
{"COMPOUND": "CCC(=C(CC)c1ccc(O)cc1)c1ccc(O)cc1", "TEST_SYSTEM": "HepG2", "ANSWER_LABEL": "1 (yes)"}
{"COMPOUND": "C[C@@H]1CN([C@H](C)CO)C(=O)c2cc(NC(=O)C3CC3)ccc2O[C@@H]1CN(C)Cc1ccc(Oc2ccccc2)cc1", "TEST_SYSTEM": "HepG2", "ANSWER_LABEL": "0 (no)"}
{"COMPOUND": "CCN(CC)Cc1ccc(Nc2ccnc3cc(Cl)ccc23)cc1O.Cl.Cl", "TEST_SYSTEM": "HepG2", "ANSWER_LABEL": "1 (yes)"}
{"COMPOUND": "C[C@@H]1CN([C@H](C)CO)C(=O)c2cccc(NC(=O)Nc3ccccc3)c2O[C@H]1CN(C)Cc1ccc(C(=O)Nc2ccccc2N)cc1", "TEST_SYSTEM": "HepG2", "ANSWER_LABEL": "0 (no)"}
{"COMPOUND": "COc1ccc(CN(C)C[C@@H]2OCCCC[C@@H](C)Oc3ccc(NC(=O)c4ccncc4)cc3C(=O)N([C@@H](C)CO)C[C@H]2C)cc1", "TEST_SYSTEM": "HepG2", "ANSWER_LABEL": "0 (no)"}
{"COMPOUND": "C[C@H]1CCCCO[C@@H](CN(C)C(=O)Nc2ccc(C(F)(F)F)cc2)[C@@H](C)CN([C@@H](C)CO)C(=O)c2cc(NC(=O)c3ccncc3)ccc2O1", "TEST_SYSTEM": "HepG2", "ANSWER_LABEL": "0 (no)"}
{"COMPOUND": "CN1CCN(C(=O)C[C@H]2CC[C@@H]3[C@@H](COc4ccc(NC(=O)c5cccs5)cc4C(=O)N3C)O2)CC1", "TEST_SYSTEM": "HepG2", "ANSWER_LABEL": "0 (no)"}
{"COMPOUND": "CN1CCN(C(=O)C[C@@H]2CC[C@H]3[C@@H](COc4ccc(NC(=O)c5cccs5)cc4C(=O)N3C)O2)CC1", "TEST_SYSTEM": "HepG2", "ANSWER_LABEL": "0 (no)"}
{"COMPOUND": "CCCCCCCCCCCCCCCCCC(=O)NCCCCOn1c(CCCC)nc2c(N)nc3ccccc3c21", "TEST_SYSTEM": "HepG2", "ANSWER_LABEL": "0 (no)"}
{"COMPOUND": "CCC(=O)c1ccc(O)cc1", "TEST_SYSTEM": "HepG2", "ANSWER_LABEL": "0 (no)"}
{"COMPOUND": "O=C(O)COCC(=O)NCc1ccco1", "TEST_SYSTEM": "HepG2", "ANSWER_LABEL": "0 (no)"}
{"COMPOUND": "COC(=O)N/N=C/c1ccc([N+](=O)[O-])o1", "TEST_SYSTEM": "HepG2", "ANSWER_LABEL": "0 (no)"}
{"COMPOUND": "COc1ccc2nc3ccc(Cl)cc3c(SCCCN)c2c1", "TEST_SYSTEM": "HepG2", "ANSWER_LABEL": "0 (no)"}
{"COMPOUND": "C[C@@H]1CN([C@H](C)CO)C(=O)c2cc(NC(=O)Cn3cnnn3)ccc2O[C@@H]1CN(C)S(=O)(=O)c1cn(C)cn1", "TEST_SYSTEM": "HepG2", "ANSWER_LABEL": "0 (no)"}
{"COMPOUND": "O=C(CCCCCNC(=O)OCCCCO[C@@H]1C[C@H](c2ccc(C(F)(F)F)cc2)C=C(C(=O)N2CCN(Cc3ccc4c(c3)OCO4)CC2)O1)NO", "TEST_SYSTEM": "HepG2", "ANSWER_LABEL": "0 (no)"}
{"COMPOUND": "CCC(c1ccc(O)cc1)C(CC)c1ccc(O)cc1 (stereo unspecified)", "TEST_SYSTEM": "HepG2", "ANSWER_LABEL": "0 (no)"}
{"COMPOUND": "COc1ccc(CN(C)C[C@H]2OCCCC[C@H](C)Oc3ccc(NC(=O)C4CCCCC4)cc3C(=O)N([C@@H](C)CO)C[C@H]2C)cc1", "TEST_SYSTEM": "HepG2", "ANSWER_LABEL": "0 (no)"}
{"COMPOUND": "CCN(CC)CCCC(C)Nc1c2ccc(Cl)cc2nc2ccc(OC)cc12.Cl.Cl (stereo unspecified)", "TEST_SYSTEM": "HepG2", "ANSWER_LABEL": "1 (yes)"}
{"COMPOUND": "C[C@@H]1CCCCO[C@H](CN(C)C(=O)Cc2ccccc2)[C@@H](C)CN([C@@H](C)CO)C(=O)c2cc(NC(=O)CCC(F)(F)F)ccc2O1", "TEST_SYSTEM": "HepG2", "ANSWER_LABEL": "0 (no)"}
{"COMPOUND": "O=C(OCC(O)CO)c1ccccc1Nc1ccnc2cc(Cl)ccc12 (stereo unspecified)", "TEST_SYSTEM": "HepG2", "ANSWER_LABEL": "0 (no)"}
{"COMPOUND": "C[C@@H]1CN([C@@H](C)CO)C(=O)Cc2cc(NC(=O)c3ccncc3)ccc2O[C@@H]1CN(C)Cc1ccc2c(c1)OCO2", "TEST_SYSTEM": "HepG2", "ANSWER_LABEL": "0 (no)"}
{"COMPOUND": "CCN(CC)CCCC(C)Nc1ccnc2cc(Cl)ccc12.O=P(O)(O)O.O=P(O)(O)O (stereo unspecified)", "TEST_SYSTEM": "HepG2", "ANSWER_LABEL": "1 (yes)"}
{"COMPOUND": "O=C(N/N=C/c1ccc(CO)o1)c1ccccn1", "TEST_SYSTEM": "HepG2", "ANSWER_LABEL": "0 (no)"}
{"COMPOUND": "COCCOC(=O)N1C(=O)[C@@]2(c3cc(C#CC4=CCCCC4)ccc31)[C@H](C(=O)NC[C@H](O)c1ccccc1)[C@H]1C(=O)O[C@H](c3ccccc3)[C@H](c3ccccc3)N1[C@@H]2c1ccc(O)cc1", "TEST_SYSTEM": "HepG2", "ANSWER_LABEL": "0 (no)"}
{"COMPOUND": "Cc1cc(Oc2ccnc3cc(Cl)ccc23)ccc1Cl", "TEST_SYSTEM": "HepG2", "ANSWER_LABEL": "0 (no)"}
{"COMPOUND": "CC(C)(C)[S@@+]([O-])N1Cc2cc(C(=O)NCc3ccc4c(c3)OCO4)nc(-c3ccc(-c4ccccc4)cc3)c2[C@H]1CCO", "TEST_SYSTEM": "HepG2", "ANSWER_LABEL": "0 (no)"}
{"COMPOUND": "C[C@H]1CCCCO[C@@H](CN(C)C(=O)c2ccncc2)[C@@H](C)CN([C@@H](C)CO)C(=O)c2cc(NC(=O)NC3CCCCC3)ccc2O1", "TEST_SYSTEM": "HepG2", "ANSWER_LABEL": "0 (no)"}
{"COMPOUND": "CC(C)NC(=O)Nc1ccc2c(c1)CC(=O)N([C@@H](C)CO)C[C@H](C)[C@H](CN(C)S(=O)(=O)c1ccc(Cl)cc1)O2", "TEST_SYSTEM": "HepG2", "ANSWER_LABEL": "0 (no)"}
{"COMPOUND": "CCCCCCc1ccc(O)cc1O.Nc1c2ccccc2nc2ccccc12", "TEST_SYSTEM": "HepG2", "ANSWER_LABEL": "1 (yes)"}
{"COMPOUND": "COc1ccc2nc(Cl)sc2c1", "TEST_SYSTEM": "HepG2", "ANSWER_LABEL": "0 (no)"}
{"COMPOUND": "COc1ccc(NC(=O)N(C)C[C@@H]2Oc3c(NC(=O)c4ccc(-c5nccs5)cc4)cccc3C(=O)N([C@@H](C)CO)C[C@H]2C)cc1", "TEST_SYSTEM": "HepG2", "ANSWER_LABEL": "0 (no)"}
{"COMPOUND": "CCCCCCCc1c(C)c(O)cc2c1[nH]c1ccccc12", "TEST_SYSTEM": "HepG2", "ANSWER_LABEL": "0 (no)"}
{"COMPOUND": "C[C@H]1CN([C@@H](C)CO)C(=O)c2cccc(NC(=O)Nc3ccc(C(F)(F)F)cc3)c2O[C@H]1CN(C)S(C)(=O)=O", "TEST_SYSTEM": "HepG2", "ANSWER_LABEL": "0 (no)"}
